target: Fuc(a1-2)Gal(b1-3)GlcNAc6S; assay: glycan array binding signal (z-score within array); higher = stronger binding; details: glycan notation: IUPAC condensed, linker removed
The full list was thinned out, with the strongest signals kept by preference.
Label yes for high-side glycan array binding signal (z-score) (at or above -0.1) and no for low-side glycan array binding signal (z-score) (below it).

Study these solved cases before continuing.
* LSECtin (Homo sapiens), Q6UXB4 (protein) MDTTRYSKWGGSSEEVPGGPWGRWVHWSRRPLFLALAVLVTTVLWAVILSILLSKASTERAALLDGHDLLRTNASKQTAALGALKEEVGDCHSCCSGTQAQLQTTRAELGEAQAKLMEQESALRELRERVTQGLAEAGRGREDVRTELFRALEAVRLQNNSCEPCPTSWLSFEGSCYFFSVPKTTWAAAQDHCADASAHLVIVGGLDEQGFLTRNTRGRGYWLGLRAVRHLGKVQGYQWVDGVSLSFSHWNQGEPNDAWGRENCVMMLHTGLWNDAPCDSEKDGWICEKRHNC | no
* CCL1 (Coprinopsis cinerea) (protein) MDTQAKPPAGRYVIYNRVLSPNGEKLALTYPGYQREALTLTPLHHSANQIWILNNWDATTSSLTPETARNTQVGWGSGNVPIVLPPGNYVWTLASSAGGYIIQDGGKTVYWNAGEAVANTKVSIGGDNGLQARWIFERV | yes

Please check the record AT1G15820(NC) (Arabidopsis thaliana) (protein) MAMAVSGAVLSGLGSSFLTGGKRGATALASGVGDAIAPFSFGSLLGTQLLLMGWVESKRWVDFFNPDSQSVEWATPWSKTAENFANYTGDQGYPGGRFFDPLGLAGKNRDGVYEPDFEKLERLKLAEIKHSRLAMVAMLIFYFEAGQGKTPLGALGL and state if its glycan array binding signal (z-score) is at or above -0.1.
no

Please check the record EUL D1A (Oryza sativa) (protein) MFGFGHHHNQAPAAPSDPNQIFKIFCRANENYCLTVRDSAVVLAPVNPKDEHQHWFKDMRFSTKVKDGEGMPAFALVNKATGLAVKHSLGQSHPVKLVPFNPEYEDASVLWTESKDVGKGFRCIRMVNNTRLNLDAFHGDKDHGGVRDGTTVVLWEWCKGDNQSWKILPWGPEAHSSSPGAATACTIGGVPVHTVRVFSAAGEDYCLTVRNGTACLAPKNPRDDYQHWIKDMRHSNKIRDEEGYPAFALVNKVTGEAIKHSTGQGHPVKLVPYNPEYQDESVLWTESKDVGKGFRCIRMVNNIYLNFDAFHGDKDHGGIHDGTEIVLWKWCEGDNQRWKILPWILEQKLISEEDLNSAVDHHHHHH and state if its glycan array binding signal (z-score) is at or above -0.1.
yes
